- Test system: Danio rerio larvae (5 dpf)
- Protocol details: optomotor response to red moving lines, difference vs DMSO (percentage points (treated minus DMSO)); higher = more of the behaviour than the DMSO vehicle control
- Condition label: 10 µM; exposure time: 3 h pre-incubation + 3 h imaging
Counter-ions that a name gives are not always drawn.
Definition: the class of an entry is the range in bin 1: < -1; bin 2: ≥ -1 and < 5; bin 3: ≥ 5 that contains its optomotor response to red moving lines.

{"Compound": "Nc1ccn([C@@H]2O[C@H](CO)[C@@H](O)C2(F)F)c(=O)n1 [Gemcitabine hydrochloride]", "Label": "bin 3"}
{"Compound": "CCOC(=O)[C@H](CCc1ccccc1)N[C@H]1CCc2ccccc2N(CC(=O)O)C1=O [Benazepril hydrochloride]", "Label": "bin 3"}
{"Compound": "O=C(O)CCCc1ccccc1 [Sodium 4-Phenylbutyrate]", "Label": "bin 2"}
{"Compound": "Nc1cccc2c1CN(C1CCC(=O)NC1=O)C2=O (centres undefined) [Lenalidomide]", "Label": "bin 3"}
{"Compound": "CN[C@H]1CC[C@@H](c2ccc(Cl)c(Cl)c2)c2ccccc21 [Sertraline hydrochloride]", "Label": "bin 3"}
{"Compound": "CCOC(=O)C1=C(COCCN)NC(C)=C(C(=O)OC)C1c1ccccc1Cl (centres undefined) [Amlodipine besylate]", "Label": "bin 1"}
{"Compound": "NS(=O)(=O)c1cc(C(=O)O)c(NCc2ccco2)cc1Cl [Furosemide]", "Label": "bin 2"}
{"Compound": "C=CC(=O)N1CCC[C@@H](n2nc(-c3ccc(Oc4ccccc4)cc3)c3c(N)ncnc32)C1 [Ibrutinib]", "Label": "bin 1"}
{"Compound": "CCCCCCCCc1ccc(CCC(N)(CO)CO)cc1", "Label": "bin 2"}
{"Compound": "CN(C)CCC[C@@]1(c2ccc(F)cc2)OCc2cc(C#N)ccc21 [Escitalopram oxalate]", "Label": "bin 1"}
{"Compound": "O=C1CCc2cc(OCCCCc3nnnn3C3CCCCC3)ccc2N1 [Cilostazol]", "Label": "bin 1"}
{"Compound": "NS(=O)(=O)c1cc2c(cc1Cl)NC(C1CC3C=CC1C3)NS2(=O)=O (centres undefined) [Cyclothiazide]", "Label": "bin 1"}
{"Compound": "CC1=Nc2ccc(Cl)cc2S(=O)(=O)N1 [Diazoxide]", "Label": "bin 2"}

* * *

- Tested on: Danio rerio larvae (5 dpf)
- Protocol details: habituation to 1-s acoustic pulses, difference vs DMSO (percentage points (treated minus DMSO)); higher = more of the behaviour than the DMSO vehicle control
- Condition label: 10 µM; exposure time: 3 h pre-incubation + 3 h imaging
Where a name gives a salt, the structure may show the parent alone.
The entries below are paired with their reported habituation to 1-s acoustic pulses.
Endpoint label: habituation to 1-s acoustic pulses

{"Compound": "CCOC(=O)[C@H](CCc1ccccc1)N[C@@H](C)C(=O)N1[C@H](C(=O)O)C[C@@H]2CCC[C@@H]21", "Endpoint label": "habituation to 1-s acoustic pulses", "Reading": -1.94}
{"Compound": "Cc1cccc(CN2CCN(C(c3ccccc3)c3ccc(Cl)cc3)CC2)c1 (stereo not drawn) [Meclizine dihydrochloride]", "Endpoint label": "habituation to 1-s acoustic pulses", "Reading": -10.1}
{"Compound": "CNC(=O)c1cc(Oc2ccc(NC(=O)Nc3ccc(Cl)c(C(F)(F)F)c3)cc2)ccn1", "Endpoint label": "habituation to 1-s acoustic pulses", "Reading": -8.29}
{"Compound": "CC(=O)Oc1cc2c(s1)CCN(C(C(=O)C1CC1)c1ccccc1F)C2 (stereo not drawn)", "Endpoint label": "habituation to 1-s acoustic pulses", "Reading": 2.1}
{"Compound": "Cc1cc(C2CCCCC2)n(O)c(=O)c1", "Endpoint label": "habituation to 1-s acoustic pulses", "Reading": 0.443}
{"Compound": "CCN(CC)CCNC(=O)c1c(C)[nH]c(/C=C2\\C(=O)Nc3ccc(F)cc32)c1C [Sunitinib malate]", "Endpoint label": "habituation to 1-s acoustic pulses", "Reading": 4.25}
{"Compound": "Cc1ccccc1C(=O)Nc1ccc(C(=O)N2CCCC(O)c3cc(Cl)ccc32)c(C)c1 (stereo not drawn)", "Endpoint label": "habituation to 1-s acoustic pulses", "Reading": 1.17}
{"Compound": "C[C@]12CCC(=O)C=C1CC[C@@H]1[C@@H]2[C@@H](O)C[C@@]2(C)[C@H]1CC[C@]2(O)C(=O)CO [Hydrocortisone]", "Endpoint label": "habituation to 1-s acoustic pulses", "Reading": 2.73}

* * *

- Test system: Danio rerio larvae (5 dpf)
- Protocol details: optomotor response to red moving lines, difference vs DMSO (percentage points (treated minus DMSO)); higher = more of the behaviour than the DMSO vehicle control
- Condition label: 10 µM; exposure time: 3 h pre-incubation + 3 h imaging
Please note: Condition met applies when optomotor response to red moving lines is -4 or greater, and Condition not met applies otherwise.

{"Compound": "Nc1nc(NC2CC2)c2ncn([C@H]3C=C[C@@H](CO)C3)c2n1 [Abacavir hemisulfate]", "Label": "Condition met"}
{"Compound": "CCOc1nc2cccc(C(=O)O)c2n1Cc1ccc(-c2ccccc2-c2nnn[nH]2)cc1", "Label": "Condition met"}
{"Compound": "O=C(Nc1c(Cl)cncc1Cl)c1ccc(OC(F)F)c(OCC2CC2)c1", "Label": "Condition met"}
{"Compound": "COCCCOc1cc(C[C@@H](C[C@H](N)[C@@H](O)C[C@H](C(=O)NCC(C)(C)C(N)=O)C(C)C)C(C)C)ccc1OC [Aliskiren hemifumarate]", "Label": "Condition met"}
{"Compound": "CC(c1cc2ccccc2s1)N(O)C(N)=O (stereo not drawn)", "Label": "Condition not met"}
{"Compound": "O=C(NCC1CCCCN1)c1cc(OCC(F)(F)F)ccc1OCC(F)(F)F (stereo not drawn) [Flecainide acetate]", "Label": "Condition not met"}
{"Compound": "C[C@]12CC[C@@H]3c4ccc(O)cc4C[C@@H](CCCCCCCCC[S+]([O-])CCCC(F)(F)C(F)(F)F)[C@H]3[C@@H]1CC[C@@H]2O (stereo partly drawn)", "Label": "Condition met"}
{"Compound": "COc1c(C)c2c(c(O)c1C/C=C(\\C)CCC(=O)OCCN1CCOCC1)C(=O)OC2 [Mycophenolate mofetil]", "Label": "Condition met"}

* * *

- System: Danio rerio larvae (5 dpf)
- Protocol details: activity during period 15 (no stimuli), difference vs DMSO (percentage points (treated minus DMSO)); higher = more of the behaviour than the DMSO vehicle control
- Condition label: 10 µM; exposure time: 3 h pre-incubation + 3 h imaging
Structures can show the parent of a compound that is named as a salt.
Lab note: anything with activity during period 15 at or over -5 counts as satisfied; the rest go in not satisfied.

{"Molecule": "CN1CCC[C@@H]1Cc1c[nH]c2ccc(CCS(=O)(=O)c3ccccc3)cc12 [Eletriptan hydrobromide]", "Label": "satisfied"}
{"Molecule": "CC#C[C@]1(O)CC[C@H]2[C@@H]3CCC4=CC(=O)CCC4=C3[C@@H](c3ccc(N(C)C)cc3)C[C@@]21C [Mifepristone]", "Label": "satisfied"}
{"Molecule": "CCCN(CCC)S(=O)(=O)c1ccc(C(=O)O)cc1 [Probenecid]", "Label": "satisfied"}
{"Molecule": "CC(=O)O[C@]1(C(C)=O)CC[C@H]2[C@@H]3C=C(C)C4=CC(=O)CC[C@]4(C)[C@H]3CC[C@@]21C [Megestrol Acetate]", "Label": "satisfied"}
{"Molecule": "Clc1ccc2nsnc2c1NC1=NCCN1 [Tizanidine hydrochloride]", "Label": "not satisfied"}
{"Molecule": "NS(=O)(=O)Cc1noc2ccccc12 [Zonisamide]", "Label": "not satisfied"}
{"Molecule": "CCCCCCCN(CC)CCCC(O)c1ccc(NS(C)(=O)=O)cc1 (stereo unspecified) [Ibutilide hemifumarate]", "Label": "not satisfied"}
{"Molecule": "Cn1nnc2c(C(N)=O)ncn2c1=O [Temozolomide]", "Label": "satisfied"}
{"Molecule": "Cc1ccsc1C(=CCCN1CCC[C@@H](C(=O)O)C1)c1sccc1C [Tiagabine hydrochloride]", "Label": "satisfied"}
{"Molecule": "Cn1cnc([N+](=O)[O-])c1Sc1ncnc2[nH]cnc12 [Azathioprine]", "Label": "satisfied"}
{"Molecule": "CC[C@H]1OC(=O)[C@H](C)[C@@H](O[C@H]2C[C@@](C)(OC)[C@@H](O)[C@H](C)O2)[C@H](C)[C@@H](O[C@@H]2O[C@H](C)C[C@H](N(C)C)[C@H]2O)[C@](C)(O)C[C@@H](C)CN(C)[C@H](C)[C@@H](O)[C@]1(C)O [Azithromycin]", "Label": "not satisfied"}
{"Molecule": "Cc1cccc(C)c1OCC(C)N (stereo unspecified) [Mexiletine hydrochloride]", "Label": "satisfied"}
{"Molecule": "C[C@@H]1C[C@H]2[C@@H]3CCC4=CC(=O)C=C[C@]4(C)[C@@]3(F)[C@@H](O)C[C@]2(C)[C@@]1(O)C(=O)CO [Dexamethasone]", "Label": "satisfied"}
{"Molecule": "O=C(c1ccc(OCCN2CCCCC2)cc1)c1c(-c2ccc(O)cc2)sc2cc(O)ccc12 [Raloxifene hydrochloride]", "Label": "not satisfied"}
{"Molecule": "CN/C(=N\\CCSCc1nc[nH]c1C)NC#N [Cimetidine]", "Label": "not satisfied"}
{"Molecule": "CN1CC(=O)N2[C@H](c3ccc4c(c3)OCO4)c3[nH]c4ccccc4c3C[C@@H]2C1=O [Tadalafil]", "Label": "satisfied"}

Data provenance: the supplement of paper PMC9023506
